The reported numbers originate from patent US8563714B2.

Molecular target: human FPRL2 (Homo sapiens)
Sequence (P25089 1-353): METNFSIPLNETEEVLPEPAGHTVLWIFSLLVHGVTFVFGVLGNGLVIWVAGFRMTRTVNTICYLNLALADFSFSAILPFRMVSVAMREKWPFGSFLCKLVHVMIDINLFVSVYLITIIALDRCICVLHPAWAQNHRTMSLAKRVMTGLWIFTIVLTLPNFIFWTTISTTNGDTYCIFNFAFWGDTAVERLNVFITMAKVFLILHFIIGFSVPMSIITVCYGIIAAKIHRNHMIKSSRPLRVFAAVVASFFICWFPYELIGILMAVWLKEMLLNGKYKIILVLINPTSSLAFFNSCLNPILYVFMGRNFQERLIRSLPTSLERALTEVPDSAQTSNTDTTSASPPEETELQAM
Experiment: Intracellular calcium measurements (FLIPR), agonistic activity in HEK293-hFPRL2-Gα16 cells
Conditions: Fluo-4 calcium FLIPR, normalized to GLY14-Humanin 100 nM
Property: log10 of EC50 (log10 of the value in nM)
The figures below represent log10 of EC50, where EC50 is stated in nM.

In the examples that follow, each entry is paired with its recorded log10 of EC50.
{"columns": ["Compound", "Experimental value"],
 "data": [
  ["CC(=O)c1csc(CNC(=O)[C@H]2[C@H](C(=O)NCCN(C)C)[C@H]3C=C[C@@H]2C32CC2)n1 (racemic) [Example 266]", 3.08],
  ["O=C(NCCCCN1CCCC1)[C@H]1[C@H](C(=O)NCc2ccc(OC(F)(F)F)cc2)[C@@H]2C=C[C@H]1C21CC1 (racemic) [Example 232]", 2.05],
  ["O=C(NC[C@H]1[C@H](C(=O)Nc2ccc(Br)cc2)[C@@H]2C=C[C@H]1C21CC1)C1CCCC1 (racemic) [Example 179]", 3.14],
  ["O=C(NCCCCN1CCCC1)[C@H]1[C@H](C(=O)Nc2ccc(Br)c(Cl)c2)[C@@H]2C=C[C@H]1C21CC1 [Example 297]", 1.45]
]}

Per the records, this compound ( NC(=O)C(Cc1ccccc1)NC(=O)C1C(C(=O)Nc2ccc(Br)cc2)C2C=CC1C21CC1 (mixture of isomers) [Example 95] ) has log10 of EC50 equal to 3.27

Record summary for O=C(NCCCCN1CCCC1)C1C(C(=O)NCCCn2ccnc2)C2C=CC1C21CC1 (stereo not drawn) [Example 141] : reported log10 of EC50 = 3.20

====

Here the recorded EC50 is given for each entry.
Target: human FPRL2 (Homo sapiens)
Sequence (P25089 1-353): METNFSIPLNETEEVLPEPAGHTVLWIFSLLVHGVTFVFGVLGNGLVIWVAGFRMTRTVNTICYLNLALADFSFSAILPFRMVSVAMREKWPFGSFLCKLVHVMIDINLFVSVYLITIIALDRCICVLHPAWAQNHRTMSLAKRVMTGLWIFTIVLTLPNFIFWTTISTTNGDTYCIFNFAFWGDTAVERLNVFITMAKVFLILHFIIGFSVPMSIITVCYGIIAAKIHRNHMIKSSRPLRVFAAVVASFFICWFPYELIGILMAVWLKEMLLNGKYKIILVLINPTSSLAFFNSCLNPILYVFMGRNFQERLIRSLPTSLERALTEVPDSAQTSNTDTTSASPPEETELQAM
Experiment: Intracellular calcium measurements (FLIPR), agonistic activity in HEK293-hFPRL2-Gα16 cells
Conditions: Fluo-4 calcium FLIPR, normalized to GLY14-Humanin 100 nM
Answer with the figure and its unit, nothing else.

{"columns": ["Molecule", "EC50"],
 "data": [
  ["O=C(NCC(F)(F)F)[C@H]1[C@H](C(=O)Nc2ccc(Br)cc2)[C@@H]2C=C[C@H]1C21CC1 (racemic)", "2480 nM"],
  ["O=C(NCCCCN1CCCC1)[C@H]1[C@H](C(=O)NCc2ccc(I)cc2)[C@@H]2C=C[C@H]1C21CC1 (racemic)", "236 nM"],
  ["O=C(NCCCN1CCOCC1)[C@H]1[C@H](C(=O)Nc2ccc(Br)cc2)[C@@H]2C=C[C@H]1C21CC1 (racemic)", "2200 nM"],
  ["O=C(NCC1CCNCC1)C1C(C(=O)Nc2ncc(Br)s2)C2C=CC1C21CC1 (stereo not shown)", "1540 nM"],
  ["COc1ccc(CCNC(=O)[C@H]2[C@H](C(=O)NCCCCN3CCCC3)[C@H]3C=C[C@@H]2C32CC2)cc1 (racemic)", "74 nM"]
]}

Could you now look at the following molecule, please?
Quick note, EC50 for O=C(NCCCCN1CCCC1)[C@H]1[C@H](C(=O)NCc2cccc(Cl)c2F)[C@@H]2C=C[C@H]1C21CC1 (racemic) landed at 200 nM

====

target: human ALX receptor (Homo sapiens, UniProt P25090); assay: Intracellular calcium measurements (FLIPR), agonistic activity in HEK293-hALXR-Gα16 cells; details: Fluo-4 calcium FLIPR, normalized to WKYMVm 10 nM
Sequence (P25090 whole entry): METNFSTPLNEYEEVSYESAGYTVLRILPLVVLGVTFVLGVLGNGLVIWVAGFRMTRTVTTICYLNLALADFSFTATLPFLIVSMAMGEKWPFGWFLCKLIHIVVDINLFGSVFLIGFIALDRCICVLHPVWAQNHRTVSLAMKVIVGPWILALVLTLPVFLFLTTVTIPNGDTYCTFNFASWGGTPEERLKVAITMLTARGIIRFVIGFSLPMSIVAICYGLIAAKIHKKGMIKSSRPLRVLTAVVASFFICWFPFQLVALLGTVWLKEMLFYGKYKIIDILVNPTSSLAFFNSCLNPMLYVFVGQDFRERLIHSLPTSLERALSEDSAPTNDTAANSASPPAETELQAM
Property: EC50 (nM)
Please reply with the bare figure in nM and do not write the unit itself.

For orientation, consider the following solved cases.
{"columns": ["Compound", "EC50 (nM)"],
 "data": [
  ["CC(C)(CNC(=O)OC(C)(C)C)CNC(=O)[C@H]1[C@H](C(=O)Nc2ccc(Br)cc2)[C@@H]2C=C[C@H]1C21CC1 (racemic)", 63],
  ["O=C(NCC(c1ccccc1)N1CCOCC1)C1C(C(=O)Nc2ccc(Br)cc2)C2C=CC1C21CC1 (mixture of isomers)", 80]
]}

Turning to the following compound.
Briefly, EC50 measured for O=C(Nc1ccc(Br)cc1)C1C(C(=O)NC2CCC(CN3CCCC3)CC2)C2C=CC1C21CC1 (single isomer, unassigned) [Example 218] : 2.1

====

Reported values of pEC50 for individual entries
Target: UniProtKB P25089
Sequence (P25089 1-353): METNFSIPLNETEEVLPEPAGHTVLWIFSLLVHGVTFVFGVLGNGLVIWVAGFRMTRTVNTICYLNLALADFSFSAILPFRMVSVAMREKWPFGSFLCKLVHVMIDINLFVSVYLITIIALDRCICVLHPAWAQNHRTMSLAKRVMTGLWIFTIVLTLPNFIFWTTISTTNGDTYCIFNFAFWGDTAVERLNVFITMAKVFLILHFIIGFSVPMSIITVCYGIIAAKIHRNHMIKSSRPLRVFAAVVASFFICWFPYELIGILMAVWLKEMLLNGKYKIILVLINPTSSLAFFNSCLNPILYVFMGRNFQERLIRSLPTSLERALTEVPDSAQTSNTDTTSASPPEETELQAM
Assay: Intracellular calcium measurements (FLIPR), agonistic activity in HEK293-hFPRL2-Gα16 cells
Conditions: Fluo-4 calcium FLIPR, normalized to GLY14-Humanin 100 nM
# pEC50 = -log10(concentration in molar units)

Some solved entries appear below for comparison.
{"columns": ["Molecule", "pEC50"],
 "data": [
  ["O=C(NCCCCN1CCCC1)[C@H]1[C@H](C(=O)NCc2cc(F)cc(F)c2F)[C@@H]2C=C[C@H]1C21CC1 (racemic)", 6.32],
  ["CC(C)(CN)CNC(=O)[C@H]1[C@H](C(=O)NCc2ccc(Br)cc2)[C@@H]2C=C[C@H]1C21CC1 (racemic)", 6.33]
]}

Reading of pEC50 for COCCC(=O)NC[C@H]1[C@H](C(=O)Nc2ccc(Br)cc2)[C@@H]2C=C[C@H]1C21CC1 (racemic) with UniProtKB P25089: 5.25

UniProtKB P25089 data for Cc1nc(CC(=O)NC[C@H]2[C@H](C(=O)Nc3ccc(Br)cc3)[C@@H]3C=C[C@H]2C32CC2)c(C)s1 (racemic) ; its pEC50: 6.06

Response field pEC50 (UniProtKB P25089) for item O=C(Nc1ccc(Br)cc1)C1C(C(=O)NC2CCC(CN3CCCC3)CC2)C2C=CC1C21CC1 (single isomer, unassigned) [Example 218] : 6.45

====

target: human ALX receptor (Homo sapiens); test: Intracellular calcium measurements (FLIPR), agonistic activity in HEK293-hALXR-Gα16 cells; conditions: Fluo-4 calcium FLIPR, normalized to WKYMVm 10 nM
# EC50 annotations
Output spec: scalar in nM, unitless text.

{"columns": ["Compound", "Measure unit", "EC50"],
 "data": [
  ["O=C(NCCCCN1CCCC1)[C@H]1[C@H](C(=O)NCCOc2ccccc2)[C@@H]2C=C[C@H]1C21CC1 (racemic)", "nM", 319],
  ["NCCCCCNC(=O)[C@H]1[C@H](C(=O)NCc2ccc(Br)cc2F)[C@@H]2CC[C@H]1C21CC1", "nM", 22],
  ["CCN(CC)CCCCNC(=O)C1C(C(=O)NCc2ccc(Br)cc2)C2C=CC1C21CC1 (centres unmarked)", "nM", 121],
  ["O=C(NCCCCN1CCCC1)[C@H]1[C@H](C(=O)NCc2ccc(F)cc2Br)[C@@H]2C=C[C@H]1C21CC1 (racemic)", "nM", 6900],
  ["CNCCNC(=O)[C@H]1[C@H](C(=O)Nc2ccc(Br)cc2)[C@@H]2C=C[C@H]1C21CC1 (racemic)", "nM", 2.8]
]}

The compound identified as O=C(NCCCCN1CCCC1)[C@H]1[C@H](C(=O)NCCC2=CCCCC2)[C@@H]2C=C[C@H]1C21CC1 (racemic) registered its EC50 at 1740

The measured EC50 associated with CN1CCN(CCCNC(=O)[C@H]2[C@H](C(=O)Nc3ccc(Br)cc3)[C@@H]3CC[C@H]2C32CC2)CC1 (racemic) reads 1.3

Entry O=C(NCCCCN1CCCC1)C1C(C(=O)Nc2ccc(Br)cn2)C2C=CC1C21CC1 (racemic) ; EC50 = 17

// field: EC50; key: Cc1onc(-c2ccccc2)c1CNC(=O)[C@H]1[C@H](C(=O)Nc2ccc(Br)cc2)[C@@H]2C=C[C@H]1C21CC1 (racemic) ; value = 812
